Target: UniProt P49683
Sequence (P49683 whole entry): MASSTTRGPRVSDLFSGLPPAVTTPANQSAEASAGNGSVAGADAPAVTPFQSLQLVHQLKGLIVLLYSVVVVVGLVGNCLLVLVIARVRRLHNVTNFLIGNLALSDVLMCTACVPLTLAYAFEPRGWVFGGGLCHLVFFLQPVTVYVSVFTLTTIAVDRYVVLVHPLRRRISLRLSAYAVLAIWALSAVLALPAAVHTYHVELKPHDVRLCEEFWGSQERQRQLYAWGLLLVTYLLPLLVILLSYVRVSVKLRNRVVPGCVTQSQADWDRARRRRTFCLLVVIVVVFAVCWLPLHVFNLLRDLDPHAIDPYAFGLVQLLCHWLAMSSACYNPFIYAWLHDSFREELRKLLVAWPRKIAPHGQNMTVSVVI
Experiment: Inhibitory activity on binding of [3H]-PrRP to GPR10 (HEK 293 cell membrane fraction)
Settings: [3H]-PrRP 1 nM, human GPR10-expressing HEK 293 cell membrane fraction; Ki from IC50 by Cheng-Prussoff formula
Structures can show the parent of a compound that is named as a salt.
Please respond with reported pKi for every item in the list.
Keep in mind that pKi stands for -log10 of concentration in molar terms.

The compound CC#CCn1c(N[C@@H](C)c2ccc(C(F)(F)F)cc2)nc2c(c1=O)CN(C(=O)c1ccc(-n3ccnc3)cc1)CC2 [Example 2402, dihydrochloride] showed pKi equal to 8.22

The compound CCOn1c(N[C@H](C)c2ccc(C(F)(F)F)cc2)nc2c(c1=O)CN(C(=O)c1ccc(C#N)cc1)CC2 [Example 92] showed pKi equal to 7.96

The compound COn1c(NC(CCC(F)(F)F)c2ccc(Cl)cc2)nc2c(c1=O)CN(C(=O)c1ccc(Cl)cc1)CC2 (stereo not shown) [Example 2450] showed pKi equal to 6.92

The compound CC#CCn1c(N[C@@H](C)c2ccc(C(F)(F)F)cc2)nc2c(c1=O)CN(C(=O)c1ccc(Cl)cc1)CC2 [Example 2409, hydrochloride] showed pKi equal to 7.80

The compound COc1ccc2oc(C(=O)N3CCc4nc(N[C@@H](C)c5ccc(C(F)(F)F)cc5)n(OC)c(=O)c4C3)cc2c1 [Example 2460] showed pKi equal to 7.85

The compound COn1c(N[C@@H](C)c2ccc(C(F)(F)F)cc2)nc2c(c1=O)CN(C(=O)c1cc3cccnc3s1)CC2 [Example 2415] showed pKi equal to 8.05

The compound C#CCCn1c(N[C@@H](C)c2ccc(C(F)(F)F)cc2)nc2c(c1=O)CN(C(=O)c1ccc(-n3ccnc3)cc1)CC2 [Example 2434] showed pKi equal to 8.05

The compound COn1c(N[C@@H](C)c2ccc(C(F)(F)F)cc2)nc2c(c1=O)CN(C(=O)c1ccc(C#N)cc1F)CC2 [Example 11, hydrochloride] showed pKi equal to 7.82

The compound C[C@H](Nc1nc2c(c(=O)n1N1CCOCC1)CN(C(=O)c1ccc(C#N)cc1F)CC2)c1ccc(C(F)(F)F)cc1 [Example 2463, hydrochloride] showed pKi equal to 8.52

The compound C[C@H](Nc1nc2c(c(=O)n1N(C)C)CN(C(=O)c1ccc(Cl)cc1)CC2)c1ccc(C(F)(F)F)cc1.Cl [Example 6, hydrochloride] showed pKi equal to 7.77

The compound COn1c(N[C@@H](C)c2ccc(C(F)(F)F)cc2)nc2c(c1=O)CN(C(=O)c1ccc(Cl)cc1)CC2 [Example 10, hydrochloride] showed pKi equal to 7.77

The compound COn1c(N[C@@H](C)c2ccc(Cl)cc2)nc2c(c1=O)CN(C(=O)c1ccc(Cl)cc1)CC2 [Example 9] showed pKi equal to 7.55

The compound CC#CCn1c(N[C@@H](C)c2ccc(C(F)(F)F)cc2)nc2c(c1=O)CN(C(=O)c1ccc(OC)cc1)CC2 [Example 2448] showed pKi equal to 7.64

The compound COn1c(N[C@H](c2ccc(Cl)cc2)C(C)C)nc2c(c1=O)CN(C(=O)c1ccc(-n3ccnc3)cc1)CC2 [Example 2481] showed pKi equal to 7.51

The compound CCOc1ccc(CNc2nc3c(c(=O)n2OC)CN(C(=O)c2ccc(C#N)cc2F)CC3)cc1 [Example 2490] showed pKi equal to 6.63

The compound CCOn1c(N[C@H](C)c2ccc(C(F)(F)F)cc2)nc2c(c1=O)CN(C(=O)c1ccc(Cl)cc1)CC2 [Example 86] showed pKi equal to 7.60

The compound COn1c(N[C@@H](C)c2ccc(C(F)(F)F)cc2)nc2c(c1=O)CN(C(=O)CSc1ccc(Cl)cc1)CC2 [Example 2390] showed pKi equal to 8.10

The compound CC#CCn1c(N[C@@H](C)c2ccc(C(F)(F)F)cc2)nc2c(c1=O)CN(C(=O)c1ccc(C)c(C)c1)CC2 [Example 2447] showed pKi equal to 7.39

The compound COn1c(N[C@@H](C)c2ccc(C(F)(F)F)cc2)nc2c(c1=O)CN(C(=O)c1ccc(C)s1)CC2 [Example 2404] showed pKi equal to 8.00

The compound COn1c(N[C@@H](C)c2ccc(C(F)(F)F)cc2)nc2c(c1=O)CN(C(=O)c1ccc(OC(F)(F)F)cc1)CC2 [Example 63] showed pKi equal to 7.80

The compound C[C@@H](Nc1nc2c(c(=O)n1N1CCCC1)CN(C(=O)c1ccc(C#N)cc1)CC2)c1ccc(C(F)(F)F)cc1 [Example 163] showed pKi equal to 8.00

The compound COn1c(N[C@@H](C)C2CCCCC2)nc2c(c1=O)CN(C(=O)c1ccc(C#N)cc1F)CC2 [Example 2469] showed pKi equal to 7.25
